- System: mouse hepatocytes
- testProtocol: In vitro hepatotoxicity test
- Format: cell-based
- assaySetup: mouse hepatocyte monolayers exposed 1 day, morphological evaluation
Numbered stars: 1 amine (or outer) side, 2 acyl side, 3 side chain; on linkers, the order of the positions; unused ones are H or OH. Bridge positions count the residues as written; N and C are the ends. Square brackets hold non-standard residues; d marks the D form. Peptide text beside a SMILES is read from it. ξ: configuration not given here. X10 = CCCCCCCCCOc1ccc2cc(CC[C@H](CC(=O)[*:1])N[*:2])ccc2c1; X9 = CCCCCCCCCCCCC[C@H](CC(=O)[*:1])O[*:2]; X2 = NC(=O)CC(O)C(N[*:1])C(=O)[*:2]; X1 = O=C(C1C(O)CCN1[*:1])[*:2]; ξY = NC(Cc1ccc(O)cc1)C(=O)O; ξHyp = O=C(O)C1CC(O)CN1; ξOrn = NCCCC(N)C(=O)O; ξT = CC(O)C(N)C(=O)O; ξV = CC(C)C(N)C(=O)O; ξP = O=C(O)C1CCCN1; ξA = CC(N)C(=O)O; Sar = CNCC(=O)O
propertyName: Cytotoxicity to hepatocyte

Problem: Query (compound): CCCCCCCCCCCCC[C@@H]1CC(=O)NC(C(C)O)C(=O)NC(C)C(=O)NC(Cc2ccc(O)cc2)C(=O)NC(C(C)C)C(=O)N2CC(O)CC2C(=O)NC(C(C)O)C(=O)NC(C(C)O)C(=O)N2CCC(O)C2C(=O)NC(C(O)CC(N)=O)C(=O)NCC(=O)NC(C(C)O)C(=O)NC(CCCNC(=O)C2CCCN2)C(=O)O1 (stereo partly drawn) [Aerothricin 15] ([ξT][ξA][ξY][ξV][ξHyp][ξT][ξT][X1][X2]G[ξT][ξOrn](ξP); linker N-C via X9) ; field requested: Cytotoxicity to hepatocyte
Result: >100 µg/mL

Problem: Query (compound): CCCCCCCCCOc1ccc2cc(CC[C@@H]3CC(=O)NC(C(C)O)C(=O)NC(C)C(=O)NC(Cc4ccc(O)cc4)C(=O)NC(C(C)C)C(=O)N4CC(O)CC4C(=O)NC(C(C)O)C(=O)NC(C(C)O)C(=O)N4CCC(O)C4C(=O)NC(C(O)CC(N)=O)C(=O)NCC(=O)NC(C(C)O)C(=O)NC(CCCN)C(=O)N3)ccc2c1 (stereo partly drawn) [Aerothricin 53] ([ξT][ξA][ξY][ξV][ξHyp][ξT][ξT][X1][X2]G[ξT][ξOrn]; linker N-C via X10) ; field requested: Cytotoxicity to hepatocyte
Result: >100 µg/mL

Problem: Query (compound): CCCCCCCCCCCCC[C@@H]1CC(=O)NC(C(C)O)C(=O)NC(C)C(=O)NC(Cc2ccc(O)cc2)C(=O)NC(C(C)C)C(=O)N2CC(O)CC2C(=O)NC(C(C)O)C(=O)NC(C(C)O)C(=O)N2CCC(O)C2C(=O)NC(C(O)CC(N)=O)C(=O)NCC(=O)NC(C(C)O)C(=O)NC(CCCNC(=O)CNC)C(=O)O1 (stereo partly drawn) [Aerothricin 14] ([ξT][ξA][ξY][ξV][ξHyp][ξT][ξT][X1][X2]G[ξT][ξOrn](Sar); linker N-C via X9) ; field requested: Cytotoxicity to hepatocyte
Result: >100 µg/mL
